Each recorded value in this set is attributed to the RNAGym collection of RNA variant scans (doi:10.7554/elife.80360).

B1: HDV Ribozyme (parent)
chain: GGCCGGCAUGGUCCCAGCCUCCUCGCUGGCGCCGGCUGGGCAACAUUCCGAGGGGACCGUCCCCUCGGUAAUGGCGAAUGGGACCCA

Variants of: B1
Experiment: self-cleavage, relative activity (ratio to wild type); higher = more cleavage; co-transcriptional

[
  {
    "variant_label": "C3U U46A",
    "self-cleavage": 0.628
  },
  {
    "variant_label": "G34A G76U",
    "self-cleavage": 0.269
  },
  {
    "variant_label": "G52A G59A",
    "self-cleavage": 1.07
  },
  {
    "variant_label": "G2U U72A",
    "self-cleavage": 0.0287
  },
  {
    "variant_label": "G5U C15G",
    "self-cleavage": 0
  },
  {
    "variant_label": "C24A C75A",
    "self-cleavage": 0.219
  },
  {
    "variant_label": "C58U A70C",
    "self-cleavage": 0.831
  },
  {
    "variant_label": "U37C C58G",
    "self-cleavage": 0.872
  },
  {
    "variant_label": "G17U U37G",
    "self-cleavage": 0.0831
  },
  {
    "variant_label": "G31C G74C",
    "self-cleavage": 0.106
  },
  {
    "variant_label": "U46A C63G",
    "self-cleavage": 0.723
  },
  {
    "variant_label": "C21A U72C",
    "self-cleavage": 0.101
  },
  {
    "variant_label": "C30A C61A",
    "self-cleavage": 0.428
  },
  {
    "variant_label": "A16G U23A",
    "self-cleavage": 1.11
  },
  {
    "variant_label": "G52U C86A",
    "self-cleavage": 0.926
  },
  {
    "variant_label": "U27A U65A",
    "self-cleavage": 0.95
  },
  {
    "variant_label": "A42G C63G",
    "self-cleavage": 0.504
  },
  {
    "variant_label": "C21A G68U",
    "self-cleavage": 0.0432
  },
  {
    "variant_label": "C24A G54U",
    "self-cleavage": 0.736
  },
  {
    "variant_label": "A43C G74C",
    "self-cleavage": 0.0811
  },
  {
    "variant_label": "C57G G59A",
    "self-cleavage": 0.997
  },
  {
    "variant_label": "C26U A87G",
    "self-cleavage": 1.04
  },
  {
    "variant_label": "U23C G82A",
    "self-cleavage": 0.314
  },
  {
    "variant_label": "G29A G54A",
    "self-cleavage": 0.0989
  },
  {
    "variant_label": "U9G G25C",
    "self-cleavage": 0
  },
  {
    "variant_label": "G11C U65A",
    "self-cleavage": 0.293
  },
  {
    "variant_label": "A16C C41G",
    "self-cleavage": 0.104
  },
  {
    "variant_label": "U37C C57A",
    "self-cleavage": 1
  },
  {
    "variant_label": "C13A A42C",
    "self-cleavage": 0.0594
  },
  {
    "variant_label": "G40C G81C",
    "self-cleavage": 0.115
  },
  {
    "variant_label": "G6C A78C",
    "self-cleavage": 0.0831
  },
  {
    "variant_label": "G1C G29C",
    "self-cleavage": 0.0665
  },
  {
    "variant_label": "C7A C15A",
    "self-cleavage": 0.0415
  },
  {
    "variant_label": "C57G A77G",
    "self-cleavage": 1.05
  },
  {
    "variant_label": "G5A A77G",
    "self-cleavage": 0
  },
  {
    "variant_label": "U46G C86U",
    "self-cleavage": 0.277
  },
  {
    "variant_label": "C30A G54C",
    "self-cleavage": 0.519
  },
  {
    "variant_label": "G11A U79A",
    "self-cleavage": 0.0652
  },
  {
    "variant_label": "U60C A77U",
    "self-cleavage": 0.831
  }
]
